These measurements were taken from PubChem BioAssay (NCI).

- Test system: SF-295 CNS
- Test: NCI-60 one-dose screen, 48 h
- Cond: 10 µM unless noted
The panel holds about 83,000 compounds, 20% with a hit somewhere; the sample as a whole holds those more often. Calls of active or inactive are those of the source. How the source made its calls: active means growth percent below 10; inactive means the rest.
Possible outcomes: active, inactive

Compound: O=C1C=C[C@H](O)[C@@]2(CO)O[C@@H]12
Class assignment: inactive
//
Compound: Cc1cc(NC(=O)c2ccccc2)c(Cl)cc1N
Class assignment: inactive
//
Compound: O=C(O)c1cc(I)ccc1O
Class assignment: inactive
//
Compound: NNc1ncccn1
Class assignment: inactive
//
Compound: CC(=O)/C(C)=N\OC(=O)Nc1ccccc1
Class assignment: inactive
//
Compound: c1cc(CNCCNCc2ccncc2)ccn1
Class assignment: inactive
//
Compound: O=C(c1ccccc1)c1ccc(-c2ccc(O)cc2)cc1
Class assignment: inactive
//
Compound: Cc1ccccc1CC(N)C(=O)O (stereo not given)
Class assignment: inactive
//
Compound: C[n+]1c(/C=C\C=C\N2CCCCC2)sc2ccccc21
Class assignment: active
//
Compound: CCCC(=O)CC(=O)c1ccccc1
Class assignment: inactive
//
Compound: CCOC(=O)c1ccc(NC(=O)Nc2nccs2)cc1
Class assignment: active
//
Compound: Cc1nc(O)cc(=O)[nH]1
Class assignment: inactive
//
Compound: COc1c(CNC(=O)CCl)cc2[nH]c(C)cc2c1CNC(=O)CCl
Class assignment: inactive
//
Compound: CCOC(=O)N[C@H]1CCc2cc(OC)c(OC)c(OC)c2-c2ccc(SC)c(=O)cc21
Class assignment: active
//
Compound: Nc1ccn(C2OC(CO)C(O)C2F)c(=O)n1 (stereo not given)
Class assignment: inactive
//
Compound: CC(=O)c1cccs1
Class assignment: inactive
//
Compound: CCCCCCCCCCCCCCCCCC(=O)NCCNC(=O)CCCCCCCCCCCCCCCCC
Class assignment: inactive
//
Compound: COc1ccc2c(ccc[n+]2C)c1
Class assignment: inactive
//
Compound: CCOC(OCC)C(=O)c1ccccc1
Class assignment: inactive
//
Compound: Cc1ccc(O)c(N)c1
Class assignment: inactive
//
Compound: CC(=O)c1cccc(NS(=O)(=O)c2ccc(C)cc2)c1
Class assignment: inactive
//
Compound: COc1cc2c(c(OC)c1OC)-c1ccc(SC)c(=O)cc1[C@@H](NC1OC(CO)C(O)C(O)C1O)CC2 (stereo not given in full)
Class assignment: active
//
Compound: Nc1ccn(C2CC(N)C(CO)O2)c(=O)n1 (stereo not given)
Class assignment: inactive
//
Compound: COc1cc(C(=O)O)c(O)c(C(C)(C)C)c1
Class assignment: inactive
//
Compound: COC1CC(OC(=O)c2ccc([N+](=O)[O-])cc2)C(COC(=O)c2ccc([N+](=O)[O-])cc2)O1 (stereo not given)
Class assignment: inactive
//
Compound: OCC1CCC(O)C(CO)N1 (stereo not given)
Class assignment: inactive
//
Compound: Cc1cc(=O)n(Nc2ccccc2)c(O)c1C#N
Class assignment: inactive
//
Compound: O=[N+]([O-])c1ccc(-c2nc(N(CCO)CCO)c3ccccc3n2)o1
Class assignment: active
//
Compound: Oc1ccc2ccccc2c1CN1CCOCC1
Class assignment: inactive
//
Compound: Nc1nc(N)nc(N2CCCCC2)n1
Class assignment: inactive
//
Compound: Nc1ncc([N+](=O)[O-])cn1
Class assignment: inactive
//
Compound: NC(=O)c1cc2c3ccccc3ccn2c1-c1ccccc1
Class assignment: active
//
Compound: O=S(=O)(O)c1cccc2cccnc12
Class assignment: inactive
//
Compound: CC(=O)NNC(=S)N/C=C/c1c(C)ccc([N+](=O)[O-])c1[N+](=O)[O-]
Class assignment: inactive
//
Compound: N=C(N)c1nn(C2OC(CO)C(O)C2O)c2nc[nH]c(=O)c12 (stereo not given)
Class assignment: active
//
Compound: CSc1nsc(N)n1
Class assignment: inactive
//
Compound: CC(C)N(C(=O)c1ccccc1)C(C)C
Class assignment: inactive
//
Compound: N#Cc1ccc(OC(=O)Nc2c(Cl)cc(Cl)cc2Cl)cc1
Class assignment: inactive
//
Compound: CCOc1ccncc1[N+](=O)[O-]
Class assignment: inactive
//
Compound: NCCCN1CCCC1=O
Class assignment: inactive
//
Compound: CN(CCCN(C)CCC1CCCCC1)CCC1CCCCC1
Class assignment: inactive
//
Compound: COc1cc(N)c2ncccc2c1Cl
Class assignment: inactive
//
Compound: COc1ccc(C2CCCCC2=O)cc1 (stereo not given)
Class assignment: inactive
//
Compound: COc1ccc2c(c1)Nc1ccccc1S2
Class assignment: inactive
//
Compound: O=C(Oc1ccccc1Cl)c1ccc(Cl)cc1Cl
Class assignment: inactive
//
Compound: CCC12OC(COc3ccccc3)CN1CCN2c1ccccc1 (stereo not given)
Class assignment: inactive
//
Compound: CC1(c2ccccc2)CO1 (stereo not given)
Class assignment: inactive
//
Compound: C1=NCCc2ccccc21
Class assignment: inactive
//
Compound: c1ccc(-c2ccc3ccccc3c2)cc1
Class assignment: inactive
//
Compound: CC(=O)C1C(=O)C(=O)N(c2ccc(Cl)c(Cl)c2)C1=O (stereo not given)
Class assignment: inactive
//
Compound: Cc1ccc(N)c(S(=O)(=O)O)c1
Class assignment: inactive
//
Compound: COC1(OC)C2(Cl)C(Cl)=C(Cl)C1(Cl)C1COCC12 (stereo not given)
Class assignment: inactive
//
Compound: C/C(=N\Nc1ccc([N+](=O)[O-])cc1[N+](=O)[O-])c1ccc(Br)cc1
Class assignment: inactive
//
Compound: O=C(CCCl)OCCOc1ccccc1
Class assignment: inactive
//
Compound: O=C(NC1CCCCC1)c1ccc(Cl)cc1
Class assignment: inactive
